Tested on: 253994-281-T-J1-PDC KRAS-mutant spheroids with HUVEC/MSC, viability;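 further: spheroids exposed to agents for seven days before readout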
Assay: Anticancer human tumor 253994-281-T-J1-PDC patient-derived colorectal carcinoma cell line growth inhibition [KRAS2]
Settings: second compound 0.316 µM; first compound 1 µM; hits give low values
Label Satisfied when viability, T/C is strictly below 80%; otherwise label Not satisfied.

Worked examples follow.
molecule	system	qualitative.label
COc1cc2nccc(Oc3ccc(NC(=O)C4(C(=O)Nc5ccc(F)cc5)CC4)cc3)c2cc1OC + C=CC(=O)N1CCN(c2nc(=O)n(-c3c(C)ccnc3C(C)C)c3nc(-c4c(O)cccc4F)c(F)cc23)C(C)C1	253994-281-T-J1-PDC KRAS-mutant spheroids with HUVEC/MSC, viability	Not satisfied
COC(=O)c1ccc2c(C(=Nc3ccc(N(C)C(=O)CN4CCN(C)CC4)cc3)c3ccccc3)c(O)[nH]c2c1 + CNCc1ccccc1-c1csc(C(C)Nc2nc(C)nc3cc(OC)c(OC)cc23)c1	253994-281-T-J1-PDC KRAS-mutant spheroids with HUVEC/MSC, viability	Not satisfied
CC1COCCN1c1cc(-c2ccnn2C)c2ccnc(-c3ccn[nH]3)c2n1 (stereo not given) + C=CC(=O)N1CCN(c2nc(OCC3CCCN3C)nc3c2CCN(c2cccc4cccc(C)c24)C3)CC1CC#N	253994-281-T-J1-PDC KRAS-mutant spheroids with HUVEC/MSC, viability	Satisfied
CCNC(=O)CC1N=C(c2ccc(Cl)cc2)c2cc(OC)ccc2-n2c(C)nnc21 (stereo not given) + CNCc1ccccc1-c1csc(C(C)Nc2nc(C)nc3cc(OC)c(OC)cc23)c1	253994-281-T-J1-PDC KRAS-mutant spheroids with HUVEC/MSC, viability	Not satisfied

Attention now turns to another entry.
Is it true that viability, T/C reported for CC(=O)OC12COC1CC(O)C1(C)C(=O)C(O)C3=C(C)C(OC(=O)C(O)C(NC(=O)OC(C)(C)C)c4ccccc4)CC(O)(C(OC(=O)c4ccccc4)C21)C3(C)C (stereo not given) + C=CC(=O)N1CCN(c2nc(OCC3CCCN3C)nc3c2CCN(c2cccc4cccc(C)c24)C3)CC1CC#N is less than 80%?
Satisfied
